Source of measurements: patent US6737383B1

- System: blackgrass
- protocol details: Test B pre/postemergence blackgrass
- Format: in vivo, Alopecurus myosuroides
- measurement setup: Preemergence, Rate 500 g/ha; scale 0 to 10 (0 no effect, 10 complete control)
measured property: Blackgrass plant response rating
Please respond with just the number, no unit label.

Known results for compounds:
C=CCn1c(=O)on(C(=O)N(c2ccc(F)cc2F)C(C)C)c1=O ... 10
CC(C)N(C(=O)n1oc(=O)n([C@H](C)c2ccccc2)c1=O)c1ccc(F)cc1 ... 2
CC(C)N(C(=O)n1oc(=O)n(-c2ccnn2C)c1=O)c1ccc(F)cc1 ... 0
CC(C)c1noc(C(C)C)c1-n1c(=O)on(C(=O)N(c2ccc(F)cc2)C(C)C)c1=O ... 4

Value lookup for Blackgrass plant response rating; key = Cc1ccccc1-n1c(=O)on(C(=O)N(c2ccc(Br)cc2)C(C)C)c1=O 0

* * *

Listed next: entries and their corresponding Redroot pigweed plant response rating.
- Tested on: pigweed
- protocol details: Test B pre/postemergence pigweed
- Assay type: in vivo, Amaranthus retroflexus
- measurement setup: Postemergence, Rate 62 g/ha; scale 0 to 10, 0 is no effect, 10 is complete control
// keep it numeric: no unit symbol after the value

CCN(CC)C(=O)n1oc(=O)n(Cc2cccs2)c1=O ... 0

What value of measured Redroot pigweed plant response rating is listed for CCCn1c(=O)on(C(=O)N(c2ccc(F)cc2)C(C)C)c1=O ? 1

Recorded Redroot pigweed plant response rating of Cc1c(Cl)cccc1-n1c(=O)on(C(=O)N(c2ccc(F)cc2)C(C)C)c1=O , please. 0

Give its Redroot pigweed plant response rating value. Item: Cc1ccccc1-n1c(=O)on(C(=O)N(c2ccc([N+](=O)[O-])cc2)C(C)C)c1=O 0

* * *

- Test system: wheat
- protocol details: Test B pre/postemergence wheat
- Assay type: in vivo, Triticum aestivum
- measurement setup: Preemergence, Rate 125 g/ha; scale of 0 to 10 where 0 is no effect and 10 is complete control
measured property: Plant response rating, Wheat
Write the value as a bare number.

See these solved cases before continuing.
COC(=O)C(CCO)n1c(=O)on(C(=O)N(c2ccc(F)cc2)C(C)C)c1=O (stereo not shown) ... 0
CC(=O)NCCn1c(=O)on(C(=O)N(c2ccc(F)cc2)C(C)C)c1=O ... 0
CC(C)N(C(=O)n1oc(=O)n(CCBr)c1=O)c1ccccc1 ... 0
CC(C)N(C(=O)n1oc(=O)n(CCCl)c1=O)c1ccccc1 ... 2
CC(C)N(C(=O)n1oc(=O)n(C(C)C(=O)N(C)C)c1=O)c1ccccc1 (stereo not shown) ... 0

Query the reported Plant response rating, Wheat for wheat; item: Cc1nc(C)c(C(C)n2c(=O)on(C(=O)N(c3ccccc3)C(C)C)c2=O)s1 (stereo not shown) 0

Record COCC(OC)n1c(=O)on(C(=O)N(c2ccccc2)C(C)C)c1=O (stereo not shown) : what is its Plant response rating, Wheat with wheat? 7

* * *

- Tested on: purple nutsedge
- protocol details: Test B pre/postemergence purple nutsedge
- Type: in vivo, Cyperus rotundus
- measurement setup: Preemergence, Rate 500 g/ha; scale of 0 to 10 where 0 is no effect and 10 is complete control
measured property: Plant response rating, Nutsedge

For orientation, consider the following solved cases.
C=C(Cn1c(=O)on(C(=O)N(c2ccccc2)C(C)C)c1=O)c1cccc(Cl)n1 ... 0
CC(C)N(C(=O)n1oc(=O)n(CNC(=O)c2ccccc2)c1=O)c1ccccc1 ... 0
CC(C)N(C(=O)n1oc(=O)n(C(C)C)c1=O)c1ccncc1 ... 0

Would you mind telling me what Plant response rating, Nutsedge value was observed for COCCn1c(=O)on(C(=O)N(c2ccc(F)cc2)C(C)C)c1=O ? 10

Using the record for CC(C)N(C(=O)n1oc(=O)n(CC2CCCCO2)c1=O)c1ccc(Cl)cc1 (stereo not drawn) , report its Plant response rating, Nutsedge. 0

# Plant response rating, Nutsedge lookup, item CC(C)N(C(=O)n1oc(=O)n(CC(C)(C)C)c1=O)c1ccc(F)cc1F 0

* * *

- System: wheat
- protocol details: Test B pre/postemergence wheat
- Type: in vivo, Triticum aestivum
- measurement setup: Preemergence, Rate 500 g/ha; scale of 0 to 10 where 0 is no effect and 10 is complete control
- Protocol: […] At the same time, these crop and weed species were also treated with postemergence applications of test chemicals formulated in the same manner. […] Treated plants and controls were maintained in a greenhouse for twelve to sixteen days, after which all species were compared to controls and visually evaluated. […]
measured property: Wheat plant response rating
Write the number on its own, no unit after it.

Take a look at these entries with their results.
CC(C)N(C(=O)n1oc(=O)n(CCCF)c1=O)c1ccccc1 ... 9
CCOC(=O)C(C)N(C(=O)n1oc(=O)n(-c2c(C)cccc2OC)c1=O)c1ccc(F)cc1 (stereo not drawn) ... 0
CC(C)N(C(=O)n1oc(=O)n(C(C)C(=O)c2ccccc2)c1=O)c1ccc(F)cc1F (stereo not drawn) ... 0
CC(C)N(C(=O)n1oc(=O)n(CCCCF)c1=O)c1ccc(F)cc1F ... 8
CC(C)N(C(=O)n1oc(=O)n(CCC2OCCCO2)c1=O)c1ccccc1 ... 9

// lookup Wheat plant response rating for Cc1ccc(N(C(=O)n2oc(=O)n(-c3ccc4ccccc4c3)c2=O)C(C)C)cc1 0

I have this compound here, CC(C)N(C(=O)n1oc(=O)n(CC2CCC2)c1=O)c1ccccc1 , and I need its recorded Wheat plant response rating. 5

I would be grateful if you could share the reported Wheat plant response rating for CCCCCCn1c(=O)on(C(=O)N(c2ccc(F)cc2)C(C)C)c1=O . 0

Which Wheat plant response rating reading was recorded for the compound CC(C)N(C(=O)n1oc(=O)n(CCC#N)c1=O)c1ccc(F)cc1 ? 8

// query Wheat plant response rating value for entry CC(C)N(C(=O)n1oc(=O)n(-c2ccc3ccccc3c2)c1=O)c1ccc(Cl)cc1 0

Look at this compound and give its reported Wheat plant response rating. Cc1ccccc1-n1c(=O)on(C(=O)N(c2ccc(OC(F)(F)F)cc2)C(C)C)c1=O 2

Find the recorded Wheat plant response rating belonging to Cc1nsc(Cl)c1Cn1c(=O)on(C(=O)N(c2ccccc2)C(C)C)c1=O and report it. 0

* * *

- Test system: pigweed
- protocol details: Test B pre/postemergence pigweed
- Type: in vivo, Amaranthus retroflexus
- measurement setup: Preemergence, Rate 125 g/ha
measured property: Redroot pigweed plant response rating (0 to 10 scale)
Reply briefly: the number, and no unit.

Below, each entry is followed by its recorded Redroot pigweed plant response rating (0 to 10 scale) result.
CC(C)N(C(=O)n1oc(=O)n(-c2ccc3ccccc3c2)c1=O)c1ccc(F)cc1 ... 0
CC1CC1n1c(=O)on(C(=O)N(c2ccc(Cl)cc2)C(C)C)c1=O (stereo not shown) ... 4
Cc1nsc(Cl)c1Cn1c(=O)on(C(=O)N(c2ccccc2)C(C)C)c1=O ... 0
CC(C)C(C)n1c(=O)on(C(=O)N(c2ccccc2)C(C)C)c1=O (stereo not shown) ... 7
CC(C)N(C(=O)n1oc(=O)n(CCl)c1=O)c1ccc(F)cc1 ... 0

State its Redroot pigweed plant response rating (0 to 10 scale) on pigweed: CC(C)N(C(=O)n1oc(=O)n(-c2ccc3ccccc3c2)c1=O)c1ccc(Cl)cc1 0

# query: Redroot pigweed plant response rating (0 to 10 scale) | item CC(C)N(C(=O)n1oc(=O)n(N2C(C)CCCC2C)c1=O)c1ccc(F)cc1 (stereo not shown) | system: pigweed 0

* * *

- Test system: wheat
- protocol details: Test B pre/postemergence wheat
- Format: in vivo, Triticum aestivum
- measurement setup: Preemergence, Rate 125 g/ha; scale of 0 to 10 where 0 is no effect and 10 is complete control
Measured Wheat plant response rating of individual entries
Provide a numeric answer; units are not to be included.

COCCn1c(=O)on(C(=O)N(c2ccc(F)cc2F)C(C)C)c1=O [Compound 628] ... 3
CC[C@H](C)n1c(=O)on(C(=O)N(c2ccc(Cl)cc2)C(C)C)c1=O [Compound 664] ... 0

Okay, next one:
Using the record for CCC=CCn1c(=O)on(C(=O)N(c2ccccc2)C(C)C)c1=O [Compound 582] , report its Wheat plant response rating. 0

* * *

- System: wild oat
- protocol details: Test B pre/postemergence wild oat
- Type: in vivo, Avena fatua
- measurement setup: Rate 62 g/ha, Postemergence; scale 0 to 10 (0 no effect, 10 complete control)
measured property: Wild oats plant response rating

What value of measured Wild oats plant response rating is listed for CC(C)N(C(=O)n1oc(=O)n(CC(=O)C2CC2)c1=O)c1ccccc1 ? 0

Looking for the measured Wild oats plant response rating of CC(C)N(C(=O)n1oc(=O)n(CCNC(=O)CCl)c1=O)c1ccccc1 , can you help? 0

// returns reported Wild oats plant response rating for input CC(C)N(C(=O)n1oc(=O)n(C2CCOCC2)c1=O)c1ccc(F)cc1 3

Dear colleague, I am looking for the recorded Wild oats plant response rating of the following compound: CC(C)N(C(=O)n1oc(=O)n(CO)c1=O)c1ccc(F)cc1 0

// returns reported Wild oats plant response rating for input C=CCn1c(=O)on(C(=O)N(CC)C2CCCCC2)c1=O 0

Look at this compound and give its reported Wild oats plant response rating. CC(C)N(C(=O)n1oc(=O)n(CC2=NOCC2)c1=O)c1ccc(F)cc1 0

What Wild oats plant response rating value was documented for this compound, C=CCn1c(=O)on(C(=O)N(c2ccc(Cl)cc2)C(C)C2CC2)c1=O (stereo not shown) ? 0
